System: DENVsg reporter replicon
Experiment: microbe, parasite or virus in culture
Assay type: cell-based, Dengue virus
Settings: Dengue virus, Huh-7, 48 h, read-out: EC50 (R-Luc activity)
endpointLabel: pEC50
// pEC50: -log10(molar conc.)

// fetch pEC50 given entry N=C(CCl)NCCC[C@H](NC(=O)c1ccccc1)C(N)=O
4.78

----------
System: DENV-2
Assay: Virus yield inhibition assay, DENV-2 in Huh7 cells, titers by plaque assay
Details: Dengue virus, DENV2, Huh-7, Huh7 transduced with shPADI4#4 (PADI4 silenced)
endpointLabel: pEC50
Conceptually, pEC50 converts a concentration in mol/L into minus its log10.

Provide measured pEC50 value, entry: N=C(CCl)NCCC[C@H](NC(=O)c1ccccc1)C(N)=O
5.93
